molecular target: RanGTP-importin-beta complex (human Ran / KPNB1); assay: disruptors of RanGTP/KPNB1 binding – biochemical, FRET, CFP/YFP, cell-free homogeneous, confirmation (AID 2823); settings: CFP-Ran/YFP-importin-beta FRET ratio
Active and inactive are the calls of the source. No rule for the calls is given here.
Reply using exactly one outcome from 1.0 (active), 0.0 (inactive)

{"Compound": "COCCNC(=S)N1CCCN(c2nc3cc(C)ccc3cc2C#N)CC1", "Class Assignment": 1.0}
{"Compound": "O=C(NNC(=S)NC(=O)c1ccccc1[N+](=O)[O-])c1ccccc1O", "Class Assignment": 0.0}
{"Compound": "Cc1cc(C(=O)COC(=O)c2nc3nccc(C)n3n2)c(C)n1CC1CCCO1 (configuration not stated)", "Class Assignment": 0.0}
{"Compound": "Nc1c(C(=O)Nc2ccccc2)c2nc3ccccc3nc2n1CCCN1CCOCC1", "Class Assignment": 1.0}
{"Compound": "Cc1nc(Nc2cnc(/C=C/c3cc(C(=O)Nc4cccc(C(F)(F)F)c4)ccc3C)cn2)cc(N2CCNCC2)n1", "Class Assignment": 1.0}

Turning now to a further record.
Ask: Please let me know the test result on file for `Cc1cccc(-n2c(O)c(/C=C/C=Nc3ccccc3)c(=O)[nH]c2=O)c1` .
Reply: 1.0

* * *

molecular target: RanGTP-importin-beta complex (human Ran / KPNB1); test: disruptors of RanGTP/KPNB1 binding – biochemical, FRET, CFP/YFP, cell-free homogeneous, confirmation (AID 2823); conditions: CFP-Ran/YFP-importin-beta FRET ratio
The source made the active and inactive calls. No rule for the calls is given here.
Write down the outcome that applies. Available outcomes: class 1 = active, class 0 = inactive

Would you please look over these solved cases?
{"Compound": "CCN(CC)S(=O)(=O)c1ccc2oc(C(=O)NCCCN3CCOCC3)c(C)c2c1", "Assayed Target": "RanGTP-importin-beta complex (human Ran / KPNB1)", "Class Assignment": "class 0"}
{"Compound": "N#C/C(=C/c1cn(CC(=O)O)c2ccccc12)C(=O)NCc1ccccc1", "Assayed Target": "RanGTP-importin-beta complex (human Ran / KPNB1)", "Class Assignment": "class 0"}

Ask: Short answer needed: outcome of this test for `CN(C)S(=O)(=O)c1ccc(N2CCCC2)c(C(=O)NC(c2ccccc2)c2ccccc2)c1` ?
Reply: class 0

Ask: What outcome does the record of this test show for `CCn1c(=O)cc(N2CCC3(CC2)OCCO3)[nH]c1=O` ?
Reply: class 0

Ask: Recorded test call requested for `Cc1ccc(/C=C/C(=O)Nc2cccc3ncccc23)o1`
Reply: class 0

Ask: For `CC(C)CN(Cc1c(O)ccc2ccccc12)CC(C)C` , which call appears in the assay record?
Reply: class 0

Ask: Given `CCCN(CCO)Cc1cccc(Br)c1` , state the outcome it received in this test.
Reply: class 0

Ask: In this assay, the call recorded for `C=CCN1C(=O)/C(=C2/Sc3ccccc3N2CC)SC1=S` was what?
Reply: class 0

* * *

target: RanGTP-importin-beta complex (human Ran / KPNB1); assay: disruptors of RanGTP/KPNB1 binding – biochemical, FRET, CFP/YFP, cell-free homogeneous, confirmation (AID 2823); details: CFP-Ran/YFP-importin-beta FRET ratio
Active and inactive are the calls of the source. How the calls were made is not given here.
# valid calls are 1.0 = active, 0.0 = inactive; nothing else

{"Compound": "COC(=O)C1=CN(c2ccc(OC)cc2)C=C(C(=O)OC)C1c1cccc(F)c1", "Class Assignment": 1.0}

Ask: Write down the call the test reported for this compound. Item: `Cc1cccc2cc(C#N)c(NCCNC(=S)NCCCN3CCOCC3)nc12`
Reply: 1.0

Ask: # outcome recorded in this test, key = `S=c1[nH]c2ccc3ccccc3c2[nH]1`
Reply: 0.0

Ask: What outcome does the record of this test show for `CC1=NC(Nc2nc(C)c3ccccc3n2)=NC(C)(C)C1` ?
Reply: 0.0
